Target: UniProtKB P34976
Sequence (P34976 1-359): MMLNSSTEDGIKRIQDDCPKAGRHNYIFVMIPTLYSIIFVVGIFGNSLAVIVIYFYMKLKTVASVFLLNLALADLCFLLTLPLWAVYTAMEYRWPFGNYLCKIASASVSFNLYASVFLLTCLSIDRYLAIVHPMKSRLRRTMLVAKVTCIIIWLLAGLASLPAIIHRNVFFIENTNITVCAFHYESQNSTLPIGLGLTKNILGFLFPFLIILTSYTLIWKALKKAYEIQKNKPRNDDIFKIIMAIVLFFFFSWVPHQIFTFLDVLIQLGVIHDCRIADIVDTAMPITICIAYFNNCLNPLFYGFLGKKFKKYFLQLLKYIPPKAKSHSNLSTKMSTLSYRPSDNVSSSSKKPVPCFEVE
Quantity Measured: IC50

Input CCc1nc2c(C)cc(C)nc2n1Cc1ccc(-c2ccccc2-c2nnn([C@@H]3O[C@H](C(=O)O)[C@@H](O)[C@H](O)[C@H]3O)n2)cc1 . Output IC50: < 50 µM
